Where do these numbers come from? They come from patent US10017509B2.

Assign IC50 to each entry below.
Measured target: EF2K (Homo sapiens)
Construct: host or cells: LN-229 cell lysate
Sequence (O00418 1-725): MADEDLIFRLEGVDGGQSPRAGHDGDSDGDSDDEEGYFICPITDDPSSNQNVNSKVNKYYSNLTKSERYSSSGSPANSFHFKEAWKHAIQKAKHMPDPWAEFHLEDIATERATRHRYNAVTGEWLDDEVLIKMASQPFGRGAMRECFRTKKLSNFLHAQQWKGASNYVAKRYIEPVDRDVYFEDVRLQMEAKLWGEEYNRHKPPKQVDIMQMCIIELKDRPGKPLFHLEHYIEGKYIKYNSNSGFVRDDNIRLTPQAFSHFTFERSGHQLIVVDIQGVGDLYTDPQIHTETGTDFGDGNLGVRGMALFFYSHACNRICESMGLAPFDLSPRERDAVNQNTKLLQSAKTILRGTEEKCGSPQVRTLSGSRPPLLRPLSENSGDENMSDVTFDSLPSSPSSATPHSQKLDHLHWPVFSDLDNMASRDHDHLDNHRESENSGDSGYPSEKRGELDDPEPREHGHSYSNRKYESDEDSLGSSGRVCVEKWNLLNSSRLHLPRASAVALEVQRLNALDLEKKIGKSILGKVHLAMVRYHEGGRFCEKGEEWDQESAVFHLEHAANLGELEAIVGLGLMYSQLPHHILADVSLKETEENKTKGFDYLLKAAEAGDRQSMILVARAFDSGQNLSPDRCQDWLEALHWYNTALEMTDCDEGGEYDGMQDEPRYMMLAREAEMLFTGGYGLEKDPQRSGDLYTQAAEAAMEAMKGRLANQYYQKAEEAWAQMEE
Assay explanation: Biochemical EF2K lysate-based kinase assay (AlphaLISA p-eEF2 Thr56)
Study conditions: pIC50 = -log IC50 (M), read-out: eEF2K_C_alphalisa pIC50 (converted)
Give bare numbers, in M.

Some molecules with known IC50 results, for comparison:
INSERT INTO results (molecule, metric_name, reported_measurement) VALUES
  ('CN1CCCN(C)c2ccc(cn2)-c2ccnc(n2)Nc2cccc(c2)CN2CCN(CC1=O)CC2CO (single isomer, unassigned) [Compound 52]', 'IC50', '9.12e-07'),
  ('C=CCCN1CCNC(=O)CN2CCN(CC2)Cc2cccc(c2)Nc2nccc(n2)-c2ccc(nc2)C1 [Compound 37]', 'IC50', '7.59e-09');

Could you tell me IC50 for each of these molecules? They are listed below.
1. Cc1cc2cc(c1)Nc1nccc(n1)-c1ccc(nc1)N(C)CCCN(C)C(=O)CN1CCN(CC1)C2 [Compound 8]
2. CC(C)N1CCN(C(C)C)c2ccc(cn2)-c2ccnc(n2)Nc2cccc(c2)CN2CCN(CC2)CC1=O [Compound 121]
3. CC(C)N1CCNc2ccc(cn2)-c2ccnc(n2)Nc2cccc(c2)CN2CCN(CC2)CC1=O [Compound 21]
4. O=C1CN2CCN(CC2)Cc2cccc(c2)Nc2nccc(n2)-c2ccc(nc2)NCC(O)CN1 (stereo not drawn) [Compound 23]
5. O=C1CNCCCNc2ccc(cn2)-c2ccnc(n2)Nc2cccc(c2)CN2CCN1CC2 [Compound 112]

1.41e-05
1.78e-05
1.1e-06
5.01e-07
3.89e-06
